# ASSAY_METHOD_TEXT: Cytotoxicity against mouse theophylline-induced B16-4A5 cells assessed as cell viability at 3 uM after 72 hrs by WST8 assay relative to control
# Type: cell-based
# REPORTED_CONDITIONS: read-out: Activity
Measured viability at 72 h, 3 µM, listed per entry for reference.

Example compounds with recorded viability at 72 h, 3 µM:
> print(dat)
                                   compound  recorded.measurement
1  COc1ccc2c([nH]c3cc(O)c(C)cc32)c1C/C=C(\C)CCC=C(C)C                  102%
2  CC(C)=CCC/C(C)=C/Cc1c(O)ccc2[nH]c3ccc(C)cc3c12                 96.5%
3  COc1ccc2c(c1)[nH]c1c3c(c(C)cc12)O[C@](C)(CCC=C(C)C)C=C3                 98.7%
4  CC(C)=CCCC1(C)C=Cc2c(c(C)cc3c2[nH]c2ccccc23)O1 (stereo not given)                 68.7%
5                  c1ccc2c(c1)[nH]c1ccccc12                  108%

Now consider a different compound.
Value of viability at 72 h, 3 µM reported for the compound Cc1cc2c3ccc(O)cc3n3c2c2c1O[C@@]1(C)CC[C@H]([C@H]2C1)C3(C)C (relative stereo) is 94.4%

###

# ASSAY_METHOD_TEXT: Inhibition of theophylline-induced melanogenesis in mouse B16-4A5 cells at 10 uM after 72 hrs by spectrophotometric analysis relative to control
# Format: functional
# REPORTED_CONDITIONS: B16-4A5, 72 h
ENDPOINT_NAME: inhibition at 10 µM (%)
Express the result in % but write the number alone.

Example compounds with recorded inhibition at 10 µM:
> print(dat)
                                   compound        endpoint.name  value.units  recorded.measurement
1  COc1ccc2[nH]c3c4c(c(C)cc3c2c1)OC(C)(C)C=C4  inhibition at 10 µM            %                  86.2
2  CC(C)=CCCC1(C)C=Cc2c(ccc3c2[nH]c2ccc(C)cc23)O1 (centres undefined)  inhibition at 10 µM            %                  85.2
3                   Oc1cccc2[nH]c3ccccc3c12  inhibition at 10 µM            %                  36.1

Now consider a different compound.
Value of inhibition at 10 µM reported for the compound `COc1ccc2c([nH]c3cc(O)c(C)cc32)c1C/C=C(\C)CCC=C(C)C` is 74.2

###

# ASSAY_METHOD_TEXT: Inhibition of theophylline-induced melanogenesis in mouse B16-4A5 cells after 72 hrs by spectrophotometric analysis relative to control
# Type: functional, cell-based
ENDPOINT_NAME: pIC50
Answer as the number alone; pIC50 is minus log10 of concentration in mol/L.

Example compounds with recorded pIC50:
> print(dat)
                                   compound  recorded.measurement
1  Cc1cc2c3ccc(O)cc3n3c2c2c1O[C@@]1(C)CC[C@H]([C@H]2C1)C3(C)C (relative stereo)                  5.54
2                   Oc1cccc2[nH]c3ccccc3c12                  4.87
3  OC[C@H]1O[C@@H](Oc2ccc(O)cc2)[C@H](O)[C@@H](O)[C@@H]1O                  3.76
4  COc1ccc2[nH]c3c4c(c(C)cc3c2c1)OC(C)(C)C=C4                  5.92
5  CC(C)=CCCC1(C)C=Cc2c(c(C)cc3c2[nH]c2ccccc23)O1 (stereo unspecified)                  5.85
6  CC(C)=CCCC1(C)C=Cc2c(ccc3c2[nH]c2ccc(C)cc23)O1 (stereo unspecified)                  5.66
7  COc1ccc2c([nH]c3cc(O)c(C)cc32)c1C/C=C(\C)CCC=C(C)C                  5.39
8  COc1ccc2c(c1)[nH]c1c3c(c(C)cc12)O[C@](C)(CCC=C(C)C)C=C3                  4.80

Value of pIC50 reported for the compound `CC(C)=CCC/C(C)=C/Cc1c(O)ccc2[nH]c3ccc(C)cc3c12` is 5.08

Value of pIC50 reported for the compound COc1cccc2c1[nH]c1c3c(c(C)cc12)OC(C)(CCC=C(C)C)C=C3 (stereo unspecified) is 5.42

###

Measured inhibition, listed per entry for reference.
# TARGET: Tyrosinase (Agaricus bisporus)
# ASSAY_METHOD_TEXT: Inhibition of mushroom tyrosinase using L-DOPA as substrate after at 3 uM after 5 mins relative to control
Please answer in the form of a number followed by its unit of measurement.

Example molecules with recorded inhibition:
> print(dat)
                                   molecule                          target  endpoint.name  recorded.measurement
1  CC(C)=CCCC1(C)C=Cc2c(ccc3c2[nH]c2ccc(C)cc23)O1 (stereo not given)  Tyrosinase (Agaricus bisporus)     inhibition                 -0.7%
2  COc1ccc2[nH]c3c4c(c(C)cc3c2c1)OC(C)(C)C=C4  Tyrosinase (Agaricus bisporus)     inhibition                   -1%
3  COc1ccc2c([nH]c3cc(O)c(C)cc32)c1C/C=C(\C)CCC=C(C)C  Tyrosinase (Agaricus bisporus)     inhibition                 -4.4%

Value of inhibition reported for the molecule `Oc1cccc2[nH]c3ccccc3c12` is 0.3%

Value of inhibition reported for the molecule Cc1cc2c3ccc(O)cc3n3c2c2c1O[C@@]1(C)CC[C@H]([C@H]2C1)C3(C)C (relative stereo) is -0.6%

###

Measured inhibition, listed per entry for reference.
# TARGET: Tyrosinase (Agaricus bisporus)
# ASSAY_METHOD_TEXT: Inhibition of mushroom tyrosinase using L-DOPA as substrate after at 100 uM after 5 mins relative to control
Express the result in % but write the number alone.

Example molecules with recorded inhibition:
> print(dat)
                                   molecule                          target  recorded.measurement
1  COc1ccc2c(c1)[nH]c1c3c(c(C)cc12)O[C@](C)(CCC=C(C)C)C=C3  Tyrosinase (Agaricus bisporus)                   4.2
2  Cc1cc2c3ccc(O)cc3n3c2c2c1O[C@@]1(C)CC[C@H]([C@H]2C1)C3(C)C (relative stereo)  Tyrosinase (Agaricus bisporus)                  20.2
3  CC(C)=CCCC1(C)C=Cc2c(c(C)cc3c2[nH]c2ccccc23)O1 (centres undefined)  Tyrosinase (Agaricus bisporus)                   6.2

Now consider a different molecule.
Value of inhibition reported for the molecule `COc1ccc2c([nH]c3cc(O)c(C)cc32)c1C/C=C(\C)CCC=C(C)C` is -1.1

###

# TARGET: Tyrosinase (Agaricus bisporus)
# ASSAY_METHOD_TEXT: Inhibition of mushroom tyrosinase using L-DOPA as substrate after at 1 uM after 5 mins relative to control
ENDPOINT_NAME: inhibition (%)
Express the result in % but write the number alone.

Example compounds with recorded inhibition:
> print(dat)
                                   compound  value.units  recorded.measurement
1  Cc1cc2c3ccc(O)cc3n3c2c2c1O[C@@]1(C)CC[C@H]([C@H]2C1)C3(C)C (relative stereo)            %                  -1.3
2  CC(C)=CCCC1(C)C=Cc2c(ccc3c2[nH]c2ccc(C)cc23)O1 (stereo not given)            %                   7.4
3  COc1ccc2[nH]c3c4c(c(C)cc3c2c1)OC(C)(C)C=C4 [KOENIMBINE]            %                   0.7
4                   Oc1cccc2[nH]c3ccccc3c12            %                   0.4

Now consider a different compound.
Value of inhibition reported for the compound `COc1ccc2c(c1)[nH]c1c3c(c(C)cc12)O[C@](C)(CCC=C(C)C)C=C3` is 0.1

###

# ASSAY_METHOD_TEXT: Cytotoxicity against mouse theophylline-induced B16-4A5 cells assessed as cell viability at 30 uM after 72 hrs by WST8 assay relative to control
# Format: cell-based
# REPORTED_CONDITIONS: read-out: Activity
Bucketed by reported viability at 72 h, 30 µM, buckets being lower bin: < 40%; middle bin: ≥ 40% and < 70%; upper bin: ≥ 70%

> print(dat)
                                   molecule       class
1  COc1cccc2c1[nH]c1c3c(c(C)cc12)OC(C)(CCC=C(C)C)C=C3 (stereo not given)  middle bin
2  COc1ccc2[nH]c3c4c(c(C)cc3c2c1)OC(C)(C)C=C4   lower bin
3                  c1ccc2c(c1)[nH]c1ccccc12   upper bin
4  CC(C)=CCCC1(C)C=Cc2c(c(C)cc3c2[nH]c2ccccc23)O1 (stereo not given)   lower bin
5  CC(C)=CCCC1(C)C=Cc2c(ccc3c2[nH]c2ccc(C)cc23)O1 (stereo not given)  middle bin

stdin: Bin this entry: `CC(C)=CCC/C(C)=C/Cc1c(O)ccc2[nH]c3ccc(C)cc3c12`
stdout: lower bin

stdin: Bin this entry: `Oc1cccc2[nH]c3ccccc3c12`
stdout: upper bin

stdin: Bin this entry: `COc1ccc2c([nH]c3cc(O)c(C)cc32)c1C/C=C(\C)CCC=C(C)C`
stdout: lower bin

stdin: Bin this entry: `COc1ccc2c(c1)[nH]c1c3c(c(C)cc12)O[C@](C)(CCC=C(C)C)C=C3`
stdout: middle bin
